Measured pest or weed control at 500 g/ha values are reported for all entries that follow.
- System: Echinochloa crus-galli (ECHCG)
- procedure.text: Post-emergence efficacy, Method A
- Assay type: in vivo
- particulars: Echinochloa crus-galli, post-emergence, 312 h; Application Rate 500 g/Ha; evaluated after 13 days; Method A; read-out: Control of weed species after post-emergence application, ECHCG (100=total damage to plant; 0=no damage to plant)
Note: unit % is implicit; provide only the numeric part.

Sample answers from the record:
INSERT INTO assay_data (molecule, observation_type, experimental_value) VALUES
  ('Cc1cc(-c2ncccn2)cn[n+]1CCS(=O)(=O)[O-] [Compound A212]', 'pest or weed control at 500 g/ha', 70),
  ('CC(CC(=O)O)[n+]1ccc(-c2ccncn2)cn1 (centres unmarked) [Compound A172]', 'pest or weed control at 500 g/ha', 50),
  ('CCOP(=O)(CCC[n+]1ccc(-c2ncccn2)cn1)OCC [Compound A204]', 'pest or weed control at 500 g/ha', 0),
  ('CCOP(=O)(O)CCC[n+]1ccc(-c2ncccn2)cn1 [Compound A232]', 'pest or weed control at 500 g/ha', 100),
  ('O=P([O-])(O)C[n+]1ccc(-c2ncccn2)cn1 [Compound A205]', 'pest or weed control at 500 g/ha', 60),
  ('O=C(O)C(O)C[n+]1ccc(-c2ccncn2)cn1 (centres unmarked) [Compound A190]', 'pest or weed control at 500 g/ha', 60),
  ('O=S(=O)(O)CC[n+]1ccc(-c2ccncc2F)cn1 [Compound A159]', 'pest or weed control at 500 g/ha', 70),
  ('O=S(=O)([O-])CC(O)C[n+]1ccc(-c2ccncn2)cn1 (centres unmarked) [Compound A224]', 'pest or weed control at 500 g/ha', 40);

molecule COC(=O)CC[n+]1ccc(-c2ccncc2)cn1 [Compound A203] , pest or weed control at 500 g/ha observed: 50

# pest or weed control at 500 g/ha (molecule: O=c1[nH]c(-c2cc[n+](CCCS(=O)(=O)[O-])nc2)ncc1Cl [Compound A173] ) is 30

Record N#Cc1cnc(-c2cc[n+](CCS(=O)(=O)[O-])nc2)cn1 [Compound A191] , field pest or weed control at 500 g/ha: 10

Looking up CC(C[n+]1ccc(-c2ncccn2)cn1)NS(=O)(=O)[O-] (centres unmarked) [Compound A221] , I see its pest or weed control at 500 g/ha listed as 60

In plain terms, NC(=O)c1ccc(-c2cc[n+](CCCS(=O)(=O)[O-])nc2)nc1 [Compound A183] has a documented pest or weed control at 500 g/ha of 20

Given item CO[N-]C(=O)C[n+]1ccc(-c2ncccn2)cn1 [Compound A219] , the value recorded as its pest or weed control at 500 g/ha is 40

###

Each entry below carries its reported pest or weed control at 500 g/ha.
- Test system: Euphorbia heterophylla (EPHHL)
- procedure.text: Post-emergence efficacy, Method A
- Assay type: in vivo
- particulars: Euphorbia heterophylla, post-emergence, 312 h; Application rate 500 g/Ha; evaluated after 13 days; 100=total damage to plant, 0=no damage to plant; read-out: Control of weed species after post-emergence application, EPHHL
- Experimental: Seeds of a variety of test species were sown in standard soil in pots. […] After 13 days the test was evaluated (100=total damage to plant; 0=no damage to plant). […]
The answer is to be given in %; state only the numeric part.

INSERT INTO results (molecule, experimental_value) VALUES
  ('Cc1nccc(-c2cc[n+](CCS(=O)(=O)[O-])nc2)n1 [Compound A31]', 50);

The molecule identified as COc1cnc(-c2cc[n+](CCC(=O)[O-])nc2)nc1 [Compound A38] registered its pest or weed control at 500 g/ha at 30

###

- Test system: Lolium perenne (LOLPE)
- procedure.text: Post-emergence efficacy, Method A
- Type: in vivo
- particulars: Lolium perenne, post-emergence, 312 h, Application Rate 500 g/Ha; evaluated after 13 days; Method A; read-out: Control of weed species after post-emergence application, LOLPE (100=total damage to plant; 0=no damage to plant)
observation.type: pest or weed control at 500 g/ha (%)
Kindly answer with a numeric value in %, unit omitted.

INSERT INTO results (molecule, experimental_value) VALUES
  ('O=P(O)(O)CCC[n+]1ccc(-c2ncccn2)cn1', 20),
  ('CCOP(=O)(C[n+]1ccc(-c2ncccn2)cn1)OCC [Compound A230, 2,2,2-trifluoroacetate]', 0),
  ('CC(CNS(=O)(=O)[O-])[n+]1ccc(-c2ncccn2)cn1 (stereo not shown)', 80),
  ('CO[N-]C(=O)CC[n+]1ccc(-c2ncccn2)cn1', 70),
  ('O=C(O)CC[n+]1ccc(-c2ccc(C(F)(F)F)cn2)cn1', 40),
  ('O=S(=O)([O-])CC[n+]1ccc(-c2ncc(C(F)(F)F)cc2Cl)cn1', 10);

The recorded pest or weed control at 500 g/ha for entry Cc1cc(-c2ncccn2)cn[n+]1CCS(=O)(=O)[O-] equals 70

Field pest or weed control at 500 g/ha (entry O=S(=O)([O-])OCCC[n+]1ccc(-c2ncccn2)cn1 ) reads 70

Just so you know, measured pest or weed control at 500 g/ha for O=P([O-])(O)C[n+]1ccc(-c2ncccn2)cn1 came out at 40

Value of pest or weed control at 500 g/ha reported for the molecule Cc1cc(-c2cc[n+](CCS(=O)(=O)[O-])nc2)nc(C)n1 is 60

So for N[C@@H](C[n+]1ccc(-c2ncccn2)cn1)C(=O)O [Compound A208, 2,2,2-trifluoroacetate] , the logged pest or weed control at 500 g/ha turned out to be 10

// CC(C)(CC(=O)O)[n+]1ccc(-c2ccncn2)cn1 : pest or weed control at 500 g/ha value = 30

pest or weed control at 500 g/ha reported for this molecule O=S(=O)(O)CC[n+]1ccc(-c2ccncc2F)cn1 : 40

The value of pest or weed control at 500 g/ha measured for the molecule Nc1nccc(-c2cc[n+](CCS(=O)(=O)[O-])nc2)n1 turned out to be 30

###

- System: Euphorbia heterophylla (EPHHL)
- procedure.text: Post-emergence efficacy, Method A
- Format: in vivo
- particulars: Euphorbia heterophylla, post-emergence, 312 h; Application rate 500 g/Ha; evaluated after 13 days; 100=total damage to plant, 0=no damage to plant; read-out: Control of weed species after post-emergence application, EPHHL
Rule: pest or weed control at 500 g/ha under 80% gives False, otherwise True.

The following compounds have reported results that may help.
INSERT INTO assay_data (compound, group) VALUES
  ('CC(C)OC(=O)CC[n+]1ccc(-c2ncccn2)cn1 [Compound A81, 2,2,2-trifluoroacetate]', 'True'),
  ('O=S(=O)([O-])CC[n+]1ccc(-c2ncc(Cl)cn2)cn1 [Compound A17]', 'False'),
  ('COC(=O)c1cnc(-c2cc[n+](CCS(=O)(=O)[O-])nc2)nc1 [Compound A33]', 'False'),
  ('COc1cc(OC)nc(-c2cc[n+](CCC(=O)[O-])nc2)n1 [Compound A76]', 'False');

Record CN(C)c1cnc(-c2cc[n+](CCS(=O)(=O)[O-])nc2)nc1 [Compound A18] ; criterion: pest or weed control at 500 g/ha no lower than 80%. Met?
False

Can Cc1nc(-c2cc[n+](CCC(=O)[O-])nc2)ncc1Cl [Compound A100] be said to have pest or weed control at 500 g/ha at or above 80%?
True

// inclusive: pest or weed control at 500 g/ha at least 80%? input: CN(C)c1ccnc(-c2cc[n+](CCS(=O)(=O)[O-])nc2)n1 [Compound A16]
False

Please indicate if the recorded pest or weed control at 500 g/ha for O=S(=O)([O-])CC[n+]1ccc(-c2nccc(C(F)(F)F)n2)cn1 [Compound A23] meets or exceeds 80%.
True

###

- Tested on: Digitaria sanguinalis (DIGSA)
- procedure.text: Post-emergence efficacy, Method A
- Format: in vivo
- particulars: Digitaria sanguinalis, post-emergence, 312 h; Application rate 500 g/Ha; evaluated after 13 days; 100=total damage to plant, 0=no damage to plant; read-out: Control of weed species after post-emergence application, DIGSA
observation.type: pest or weed control at 500 g/ha (%)
Your answer should be a plain number; it is taken to be in %.

INSERT INTO assay_data (entry_smiles, experimental_value) VALUES
  ('Cc1cnc(-c2cc[n+](CCS(=O)(=O)[O-])nc2)c(Cl)c1', 60),
  ('Cc1cnc(-c2cc[n+](CCS(=O)(=O)[O-])nc2)c(F)c1', 30),
  ('Cc1cccc(-c2cc[n+](CCC(=O)[O-])nc2)n1', 30),
  ('O=S(=O)([O-])CCC[n+]1ccc(-c2cnc(F)cn2)cn1', 10);

Record O=C(O)CC[n+]1ccc(-c2ccccn2)cn1 has Digitaria sanguinalis (DIGSA) pest or weed control at 500 g/ha equal to 50

Form: item Cc1cccnc1-c1cc[n+](CCS(=O)(=O)[O-])nc1 ; test system Digitaria sanguinalis (DIGSA); pest or weed control at 500 g/ha: 30

pest or weed control at 500 g/ha of O=S(=O)([O-])CC[n+]1ccc(-c2ccc(C(F)(F)F)nn2)cn1 , assay on Digitaria sanguinalis (DIGSA), is 40

// returns pest or weed control at 500 g/ha for Cc1nccc(-c2cc[n+](CCS(=O)(=O)[O-])nc2)n1 with Digitaria sanguinalis (DIGSA); value = 90
